Source of measurements: patent US20240342179A1

assayed system: KIF15/TPX2 protein-protein interaction (GST-KIF15 amino acids 1149-1388, His-TPX2 amino acids 346-747) (Homo sapiens (Human))
Sequence (Q9NS87 1149-1388): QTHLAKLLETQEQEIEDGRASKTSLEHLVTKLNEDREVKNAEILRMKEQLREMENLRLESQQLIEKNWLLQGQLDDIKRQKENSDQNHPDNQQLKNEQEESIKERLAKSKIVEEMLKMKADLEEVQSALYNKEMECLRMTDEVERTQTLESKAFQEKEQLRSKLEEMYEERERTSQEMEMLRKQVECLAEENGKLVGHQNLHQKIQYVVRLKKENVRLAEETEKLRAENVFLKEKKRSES
assay overview: KIF15/TPX2 AlphaScreen assay
Each record here notes measured IC50.
metric name: IC50 (µM)

>>> df
                                   compound  reported_measurement
0  CCCN1CCN(c2ncc3c(n2)CCN(Cc2ccc(CC)cc2)C3)CC1 [Compound 1]                  32.2
1  CCN1CCN(c2ncc3c(n2)CCN(Cc2ccc(OC)c(OC)c2OC)C3)CC1 [Compound 9]                   1.7
2  CCCN1CCN(c2ncc3c(n2)CCN(Cc2ccc(OCC)c(OCC)c2)C3)CC1 [Compound 3]                  42.2
3  C=CCn1c(C(=O)NCc2ccccn2)cc2sc(C)cc21 [Compound 14]                   5.6
4  CCCN1CCN(c2ncc3c(n2)CCN(Cc2cccc(Br)c2)C3)CC1 [Compound 5]                    21
